Entry source: patent US20240122179A1

Each item that follows carries a reported pest or weed control at 280 g/ha.
Test system: Amaranthus rudis (AMATA)
procedure-text: Postemergence herbicide evaluation, percent reduction in plant size vs untreated control, 21 days after treatment
Format: in vivo, Amaranthus rudis (tall water hemp)
test-parameters: Amaranthus tuberculatus, post-emergence, 504 h, AMATA, rate 280 g ae/ha, postemergence; read-out: Control/Injury
Answer format reminder: number followed by unit.

# smiles-representation, pest or weed control at 280 g/ha
measured = [
    ("COc1c(Cl)ccc(Cl)c1C(=O)NNCc1ccccc1", "28%"),
    ("COc1c(Cl)ccc(Cl)c1C(=O)ON1C(=O)CCC1=O", "88%"),
    ("COc1c(Cl)ccc(Cl)c1C(=O)O/N=C(\\SC)c1ccccc1", "73%"),
]

For COc1c(Cl)ccc(Cl)c1C(=O)O/N=C(\N)CC/C(N)=N/OC(=O)c1c(Cl)ccc(Cl)c1OC , what is its reported pest or weed control at 280 g/ha?
68%

For COc1c(Cl)ccc(Cl)c1C(=O)NNc1nc2ccccc2o1 , what is its reported pest or weed control at 280 g/ha?
3%

For COc1c(Cl)ccc(Cl)c1C(=O)n1ncc2ccccc21 , what is its reported pest or weed control at 280 g/ha?
63%

For COc1c(Cl)ccc(Cl)c1C(=O)OCc1ccccc1 , what is its reported pest or weed control at 280 g/ha?
60%

For COc1c(Cl)ccc(Cl)c1C(=O)O/N=C/C(C)=O , what is its reported pest or weed control at 280 g/ha?
80%

For COc1c(Cl)ccc(Cl)c1C(=O)O/N=C(\N)CCCC/C(N)=N/OC(=O)c1c(Cl)ccc(Cl)c1OC , what is its reported pest or weed control at 280 g/ha?
64%
